Experiment: viability with doxycycline-inducible construct
Type: cell-based
Conditions: human, dox 1000; Concentration 0.3125; read-out: mean_norm (normalized viability)
Experimental: Cells were plated in 384-well plates (typically 1,500 cells per well) with varying concentrations of compounds, with a total volume of 50 μl per well. CTG reagent was added (25 μl) to the solutions, mixed and read out using an EnVision 2105 multimode plate reader.
property name: viability

| smi | observed value |
| --- | --- |
| CC[C@@H]1C(=O)N(C)c2cnc(Nc3ccc(C(=O)NC4CCN(C)CC4)cc3OC)nc2N1C1CCCC1 | 83% |

###

assay: viability with doxycycline-inducible construct; type: cell-based; conditions: human, dox 1000; Concentration 1.25; read-out: mean_norm (normalized viability)
property name: viability (%)

| smi | unit name | observed value |
| --- | --- | --- |
| CC[C@@H]1C(=O)N(C)c2cnc(Nc3ccc(C(=O)NC4CCN(C)CC4)cc3OC)nc2N1C1CCCC1 | % | 48.7 |

###

assay: CellTiter-Glo cell viability; format: cell-based; settings: human, p53_construct Mut; Compound_conc 3.125; CTG 4 days; read-out: mean (normalized viability)
property name: viability at 4 days (%)

| smi | observed value |
| --- | --- |
| CC[C@@H]1C(=O)N(C)c2cnc(Nc3ccc(C(=O)NC4CCN(C)CC4)cc3OC)nc2N1C1CCCC1 | 113 |

###

Assay: viability with doxycycline-inducible construct
Type: cell-based
Details: human, dox 0; Concentration 312.5; read-out: mean_norm (normalized viability)
Description: Cells were plated in 384-well plates (typically 1,500 cells per well) with varying concentrations of compounds, with a total volume of 50 μl per well. CTG reagent was added (25 μl) to the solutions, mixed and read out using an EnVision 2105 multimode plate reader.

| smi | viability [%] |
| --- | --- |
| CC[C@@H]1C(=O)N(C)c2cnc(Nc3ccc(C(=O)NCCOCCOCCOCCOCCC(=O)N4CCC(Nc5cccc6c5cc(C#CCNc5ccc(S(C)(=O)=O)cc5OC)n6CC(F)(F)F)CC4)cc3OC)nc2N1C1CCCC1 | 95.6 |

###

experiment: CellTiter-Glo cell viability; format: cell-based; details: human, MFE319 cells, p53-01 Concentration (µM) 10; No PMV6; read-out: viability, replicates (sheet 4G)
property name: viability at 10 µM (%)

| smi | property name | unit name | observed value |
| --- | --- | --- | --- |
| CC[C@@H]1C(=O)N(C)c2cnc(Nc3ccc(C(=O)NCCOCCOCCOCCOCCC(=O)N4CCC(Nc5cccc6c5cc(C#CCNc5ccc(S(C)(=O)=O)cc5OC)n6CC(F)(F)F)CC4)cc3OC)nc2N1C1CCCC1 | viability at 10 µM | % | 22.2 |

###

test: CellTiter-Glo cell viability; assay type: cell-based; conditions: human, MFE319 cells, p53-01 Concentration (µM) 1.25; No PMV6; read-out: viability, replicates (sheet 4G)

| compound | unit name | viability at 1.25 µM |
| --- | --- | --- |
| CC[C@@H]1C(=O)N(C)c2cnc(Nc3ccc(C(=O)NCCOCCOCCOCCOCCC(=O)N4CCC(Nc5cccc6c5cc(C#CCNc5ccc(S(C)(=O)=O)cc5OC)n6CC(F)(F)F)CC4)cc3OC)nc2N1C1CCCC1 [p53-01, PMV6-PEG4-BI2536] | % | 61.2 |

###

assay: CellTiter-Glo cell viability; format: cell-based; conditions: human, p53_construct Mut; Compound_conc 0.0488281; CTG 4 days; read-out: mean (normalized viability)
property name: viability at 4 days (%)

| compound | unit name | observed value |
| --- | --- | --- |
| CC[C@@H]1C(=O)N(C)c2cnc(Nc3ccc(C(=O)NC4CCN(C)CC4)cc3OC)nc2N1C1CCCC1 [BI2536] | % | 112 |

###

experiment: viability with doxycycline-inducible construct; format: cell-based; conditions: human, dox 1000; Concentration 2.5; read-out: mean_norm (normalized viability)

| smi | viability, % |
| --- | --- |
| CC[C@@H]1C(=O)N(C)c2cnc(Nc3ccc(C(=O)NC4CCN(C)CC4)cc3OC)nc2N1C1CCCC1 | 18.6 |

###

assay: CellTiter-Glo cell viability; type: cell-based; details: human, LNCaP cells, LNCAP; Concentration 2500; 4 day; read-out: mean_norm (normalized viability)
property name: viability at 4 day (%)

| smi | property name | observed value |
| --- | --- | --- |
| CC[C@@H]1C(=O)N(C)c2cnc(Nc3ccc(C(=O)NCCOCCOCCOCCOCCC(=O)N4CCC(Nc5cccc6c5cc(C#CCNc5ccc(S(C)(=O)=O)cc5OC)n6CC(F)(F)F)CC4)cc3OC)nc2N1C1CCCC1 | viability at 4 day | 87.3 |

###

experiment: CellTiter-Glo cell viability; format: cell-based; conditions: human, p53_construct WT; Compound_conc 6.25; CTG 4 days; read-out: mean (normalized viability)

| compound | viability at 4 days, % |
| --- | --- |
| CC[C@@H]1C(=O)N(C)c2cnc(Nc3ccc(C(=O)NC4CCN(C)CC4)cc3OC)nc2N1C1CCCC1 [BI2536] | 80.9 |

###

experiment: CellTiter-Glo cell viability; assay type: cell-based; conditions: human, MFE319 cells, p53-01 Concentration (µM) 0.0390625; No PMV6; read-out: viability, replicates (sheet 4G)

| smi | viability at 0.0390625 µM |
| --- | --- |
| CC[C@@H]1C(=O)N(C)c2cnc(Nc3ccc(C(=O)NCCOCCOCCOCCOCCC(=O)N4CCC(Nc5cccc6c5cc(C#CCNc5ccc(S(C)(=O)=O)cc5OC)n6CC(F)(F)F)CC4)cc3OC)nc2N1C1CCCC1 | 94% |

###

experiment: viability with doxycycline-inducible construct; type: cell-based; details: human, dox 0; Concentration 156.25; read-out: mean_norm (normalized viability)

| smi | viability [%] |
| --- | --- |
| CC[C@@H]1C(=O)N(C)c2cnc(Nc3ccc(C(=O)NCCOCCOCCOCCOCCC(=O)N4CCC(Nc5cccc6c5cc(C#CCNc5ccc(S(C)(=O)=O)cc5OC)n6CC(F)(F)F)CC4)cc3OC)nc2N1C1CCCC1 | 99.3 |

###

experiment: CellTiter-Glo cell viability; assay type: cell-based; conditions: human, p53_construct WT; Compound_conc 0.0976562; CTG 4 days; read-out: mean (normalized viability)

| compound | viability at 4 days / % |
| --- | --- |
| CC[C@@H]1C(=O)N(C)c2cnc(Nc3ccc(C(=O)NC4CCN(C)CC4)cc3OC)nc2N1C1CCCC1 [BI2536] | 111 |

###

Experiment: CellTiter-Glo cell viability
Assay type: cell-based
Conditions: human, Huh7 cells, Concentration 1250, 4 day, read-out: mean_norm (normalized viability)
Protocol: Cells were plated in 384-well plates (typically 1,500 cells per well) with varying concentrations of compounds, with a total volume of 50 μl per well. CTG reagent was added (25 μl) to the solutions, mixed and read out using an EnVision 2105 multimode plate reader.
property name: viability at 4 day (%)

| compound | unit name | observed value |
| --- | --- | --- |
| CC[C@@H]1C(=O)N(C)c2cnc(Nc3ccc(C(=O)NCCOCCOCCOCCOCCC(=O)N4CCC(Nc5cccc6c5cc(C#CCNc5ccc(S(C)(=O)=O)cc5OC)n6CC(F)(F)F)CC4)cc3OC)nc2N1C1CCCC1 [p53-01, PMV6-PEG4-BI2536] | % | 104 |

###

assay: CellTiter-Glo cell viability; assay type: cell-based; details: human, BxPC-3 cells, BXPC3; Concentration 312.5; 4 day; read-out: mean_norm (normalized viability)

| compound | viability at 4 day (%) |
| --- | --- |
| CC[C@@H]1C(=O)N(C)c2cnc(Nc3ccc(C(=O)NCCOCCOCCOCCOCCC(=O)N4CCC(Nc5cccc6c5cc(C#CCNc5ccc(S(C)(=O)=O)cc5OC)n6CC(F)(F)F)CC4)cc3OC)nc2N1C1CCCC1 [p53-01, PMV6-PEG4-BI2536] | 91 |

###

assay: CellTiter-Glo cell viability; assay type: cell-based; details: human, LNCaP cells, LNCAP; Concentration 78.125; 4 day; read-out: mean_norm (normalized viability)
property name: viability at 4 day (%)

| smi | unit name | observed value |
| --- | --- | --- |
| CC[C@@H]1C(=O)N(C)c2cnc(Nc3ccc(C(=O)NCCOCCOCCOCCOCCC(=O)N4CCC(Nc5cccc6c5cc(C#CCNc5ccc(S(C)(=O)=O)cc5OC)n6CC(F)(F)F)CC4)cc3OC)nc2N1C1CCCC1 | % | 93 |

###

test: CellTiter-Glo cell viability; format: cell-based; settings: human, p53_construct WT; Compound_conc 0.390625; CTG 4 days; read-out: mean (normalized viability)

| smi | viability at 4 days [%] |
| --- | --- |
| CC[C@@H]1C(=O)N(C)c2cnc(Nc3ccc(C(=O)NC4CCN(C)CC4)cc3OC)nc2N1C1CCCC1 | 103 |
